- METHOD: In vitro inhibitory activity against Phosphatidylinositol 3-Kinase
Item-by-item account of pIC50
Conceptually, pIC50 converts a concentration in mol/L into minus its log10.

Observe how each entry below is paired with its result.
COC[C@H]1OC(=O)c2coc3c2[C@@]1(C)C1=C(C3=O)[C@@H]2C[C@@H](OC(C)=O)C(=O)[C@@]2(C)C[C@H]1OC(C)=O | 6.51
COC[C@H]1OC(=O)c2coc3c2[C@@]1(C)C1=C(C3=O)[C@@H]2CC[C@H](O)[C@@]2(C)C[C@H]1OC(C)=O | 9.30
COC[C@H]1OC(=O)c2coc3c2[C@@]1(C)C1=C(C3=O)[C@@H]2C[C@@H](O)C(=O)[C@@]2(C)C[C@H]1OC(C)=O | 6.82
COC(=O)c1coc2c(O)c3c(c(C)c12)C=C[C@]1(C)C(=O)CC[C@@H]31 | 5.34
COC[C@H]1OC(=O)c2coc3c2[C@@]1(C)C1=C(C3=O)[C@@H]2C[C@@H](Br)C(=O)[C@@]2(C)C[C@H]1OC(C)=O | 7.11
COC[C@H]1OC(=O)c2coc3c2[C@@]1(C)C1=CC[C@]2(C)C(=O)CC[C@H]2C1C3=O (some centres not stated) | 7.27

Task: Can you share its pIC50? I mean this compound: COC[C@H]1OC(=O)c2coc3c2[C@@]1(C)C1=C(C3=O)[C@@H]2CC=C(OC(C)=O)[C@@]2(C)C[C@H]1OC(C)=O
Output: 7.23

Task: Try this compound next: COC[C@H]1OC(=O)C2=CCOC3=C2[C@@]1(C)C1=C(C3=O)[C@@H]2CCC(=O)[C@@]2(C)C[C@H]1OC(C)=O
Output: 6.57

Task: Ok, now CCCCS/C=C1\C(=O)O[C@H](COC)[C@@]2(C)C1=C(O)C(=O)C1=C2[C@H](OC(C)=O)C[C@]2(C)C(=O)CC[C@@H]12
Output: 7.28

Task: Now the same for COC[C@H]1OC(=O)c2coc3c2[C@@]1(C)C1=C(C3=O)[C@@H]2CCC(=O)[C@@]2(C)CC1
Output: 7.77

Task: # repeat for COC[C@H]1OC(=O)c2coc3c2[C@@]1(C)C1=C(C3=O)[C@@H]2CCC(=O)[C@@]2(C)C[C@H]1OC(C)=O
Output: 8.38

* * *

- METHOD: Inhibition of Phosphatidylinositol 3-Kinase
ATTRIBUTE MEASURED: IC50 (nM)
Express your answer in nM, writing the number without its unit.

Task: What measured IC50 goes with CCN(/C=C1\C(=O)O[C@H](COC)[C@@]2(C)C1=C(O)C(=O)C1=C2[C@H](OC(C)=O)C[C@]2(C)C(=O)CC[C@@H]12)CC ?
Output: 80
